Would you kindly list binding signal for each of these sequences?
Target: SALL4 ZFC4 WT (HT-SELEX) (Mus musculus, UniProt Q8BX22 870-940)
Sequence: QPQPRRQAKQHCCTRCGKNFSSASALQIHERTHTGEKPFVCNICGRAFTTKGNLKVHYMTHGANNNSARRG
Test: HT-SELEX; high values mean tight binding
Conditions: protein: recombinant; vector His6-GST; dsDNA, one strand shown
Answer in fold-change vs cycle 0, number only, no unit symbol.

Query string: What value of measured binding signal is listed for `AGTCAT` ?
Result string: 1.45

Query string: Another sequence: `CGGAAC`
Result string: 0.339

Query string: `CCGAAG` ?
Result string: 0.38

Query string: Now give it for `CCCCTC` too.
Result string: 0.31

Query string: Can you check `CATAAG` next?
Result string: 1.63

Query string: // repeat for `ATGCAC` and report
Result string: 0.606

Query string: How about `CACACA` ?
Result string: 0.666

Query string: Try `ACCCTC` next.
Result string: 0.489

Query string: Repeat for the following sequence: `TAAAGA`
Result string: 2.04

Query string: And the next one, `CACAAC` ?
Result string: 0.647

Query string: Also `TCTAGA` , if possible.
Result string: 1.32

Query string: `AATACG` ?
Result string: 1.06

Query string: // same read-out, input: `AAAGAT`
Result string: 2.08
